Data provenance is patent US20210380703A1.

Kindly state optical density for each of the entries shown.
Target: T1, human ACVR2A (human, UniProt P27037 20-135, limits assumed); also: test concentration or dose not given here
T1 construct: coated antigen of the initial ELISA; also called activin receptor, type II A
T1 sequence (P27037 20-135 limits assumed): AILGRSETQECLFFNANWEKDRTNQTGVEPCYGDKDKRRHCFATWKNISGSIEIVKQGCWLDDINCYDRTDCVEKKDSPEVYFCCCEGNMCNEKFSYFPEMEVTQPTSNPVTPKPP
Test: ELISA
Output spec: scalar in OD, unitless text.

(Q) Given the entry 369_B05 (antibody, V domains shown, Group III) VH: EVQLLESGGGLVQPGGSLRLSCAASGFTFDSYSMNWVRQAPGKGLEWVSGINYNGGYKSYADSVKGRFTISRDNSKNTLYLQMNSLRAEDTAVYYCARGANWHDTHLDYWGQGTLVTVSS VL: DIQMTQSPSSLSASVGDRVTITCRASQSIISYLNWYQQKPGKAPKLLIYAATSLASGVPSRFSGSGSGTDFTLTISSLQPEDFATYYCQQSYDTPLTFGGGTKVEIK , report its measured optical density.
(A) 2.78

(Q) Given the entry 371_C04 (antibody, V domains shown, Group III) VH: EVQLLESGGGLVQPGGSLRLSCAASGFTFDSYGMNWVRQAPGKGLEWVSGINYNSGYKGYADSVKGRFTISRDNSKNTLYLQMNSLRAEDTAVYYCARGANWHDTALDYWGQGTLVTVSS VL: DIQMTQSPSSLSASVGDRVTITCRASQSILSYLNWYQQKPGKAPKLLIYAATSRASGVPSRFSGSGSGTDFTLTISSLQPEDFATYYCQQSYSTPLTFGGGTKVEIK , report its measured optical density.
(A) 2.05

(Q) Given the entry 374_C09 (antibody, V domains shown, Group III) VH: EVQLLESGGGLVQPGGSLRLSCAASGFTFDSYGMNWVRQAPGKGLEWVSSINYNGGYKGYADSVKGRFTISRDNSKNTLYLQMNSLRAEDTAVYYCARGANWHDTHLDYWGQGTLVTVSS VL: DIQMTQSPSSLSASVGDRVTITCRASQSIVSYLNWYQQKPGKAPKLVIYAATSRASGVPSRFSGSGSGTDFTLTISSLQPEDFATYYCQQSYELPLTFGGGTKVEIK , report its measured optical density.
(A) 3.43
